Origin of the recorded values: patent US20240261302A1

test: Cell viability after RSL3 with/without FCCP (CyQUANT DNA-based assay, fluorescence microscopy), mt-GFP WT cells; design: species or system mouse; conditions: mouse, HT22 mt-GFP WT cells, FCCP treatment 40 hr, read-out: decrease in cell viability compared to the vehicle control
value-kind: cytotoxicity at 40 hr, 5 μM

For N#CC(C#N)=NNc1ccc(OC(F)(F)F)cc1 [FCCP, reference compound] the molecule record lists cytotoxicity at 40 hr, 5 μM as ~40%

* * *

assay: Cell viability after RSL3 with/without FCCP (CyQUANT DNA-based assay, fluorescence microscopy), mt-GFP/mCherry-Parkin cells; set-up: species or system mouse; settings: mouse, HT22 mt-GFP/mCherry-Parkin cells, FCCP treatment 40 hr, read-out: decrease in cell viability compared to the vehicle control
value-kind: cytotoxicity at 40 hr, 5 μM

cytotoxicity at 40 hr, 5 μM in this record for N#CC(C#N)=NNc1ccc(OC(F)(F)F)cc1 [FCCP, reference compound] : ~40%
